target-or-system: Kras and SOS1 (biotin-tagged human Kras loaded with GDP, His-tagged human SOS1) (Homo sapiens, UniProt P01116, G12D)
Construct: made in house; host or cells: E. coli (stated for Kras only)
Sequence (P01116 1-188 isoform P01116-2 G12D): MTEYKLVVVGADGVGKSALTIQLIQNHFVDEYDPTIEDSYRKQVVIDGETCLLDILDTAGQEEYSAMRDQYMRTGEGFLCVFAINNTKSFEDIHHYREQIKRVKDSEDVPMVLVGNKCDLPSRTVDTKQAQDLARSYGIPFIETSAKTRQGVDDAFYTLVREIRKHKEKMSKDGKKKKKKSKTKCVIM
experiment: Protein-protein interaction inhibition between Kras and SOS1 (KrasGl2D-SOS PPI) using AlphaScreen
Format: binding
condition-notes: AlphaScreen; biotin-tagged human Kras loaded with GDP, His-tagged human SOS1; read-out: KRAS G12D-SOS PPI IC50
Starred links: 1 amine or outer side, 2 acyl side, 3 side chain; linkers in the order of their positions; H or OH if unused. Non-standard residues stand in square brackets, D forms with d. Residues, ends and D or L forms follow the SMILES beside them. hPhe(3-Cl-4-CF3) = N[C@@H](CCc1ccc(C(F)(F)F)c(Cl)c1)C(=O)O; NMedβ3hAla = C[C@H](CC(=O)[*:2])N(C)[*:1]; NMehPhe = CN[C@@H](CCc1ccccc1)C(=O)O; NMeCha = CN[C@@H](CC1CCCCC1)C(=O)O; NMeL = CN[C@@H](CC(C)C)C(=O)O; NMeV = CN[C@H](C(=O)O)C(C)C; d(β3hA) = C[C@@H](N)CC(=O)O; NMeA = CN[C@@H](C)C(=O)O; NMeAib = CNC(C)(C)C(=O)O; Ac5c = NC1(C(=O)O)CCCC1; Aze = O=C(O)[C@@H]1CCN1; Sar = CNCC(=O)O
assay-readout: IC50 (nM)
Note: unit nM is implicit; provide only the numeric part.

- compound: "CC[C@H](C)[C@@H]1NC(=O)[C@H](C)N(C)C(=O)C[C@@H](C)N(C)C(=O)[C@H](CC(C)C)NC(=O)C(C)(C)N(C)C(=O)[C@H](CC(C)C)NC(=O)[C@H](CCc2ccc(C(F)(F)F)c(Cl)c2)NC(=O)CN(C)C(=O)[C@H](CC2CCCCC2)N(C)C(=O)[C@@H]2CCN2C(=O)[C@H](C)N(C)C1=O [Compound 1391] (cyclo([Aze][NMeCha][Sar][hPhe(3-Cl-4-CF3)]L[NMeAib]L[NMedβ3hAla][NMeA]I[NMeA]))"
  result-unit: "nM"
  IC50: 65

Then this compound:
Which IC50 reading was recorded for the compound CC[C@H](C)[C@@H]1NC(=O)[C@H](CC(C)C)N(C)C(=O)C[C@@H](C)NC(=O)[C@H](C(C)C)N(C)C(=O)C2(CCCC2)NC(=O)[C@@H]2CCCN2C(=O)[C@H](CCc2ccc(C(F)(F)F)c(Cl)c2)NC(=O)CN(C)C(=O)[C@H](CCc2ccccc2)N(C)C(=O)CN(C)C(=O)CN(C)C1=O [Compound 1627] (cyclo([Ac5c][NMeV][d(β3hA)][NMeL]I[Sar][Sar][NMehPhe][Sar][hPhe(3-Cl-4-CF3)]P)) ?
15
